protocol-summary: 8-day repeat-dose study, tolerability (blood chemistry, hematology, adverse events) in tumor-bearing dogs
Type: in vivo, dog
condition-label: Dog 4; Post: 30 min after last injection on day 8; 10 mg s.c. once daily for 8 days
Where a SMILES comes first, the peptide text is derived from it. [ ]: non-standard residue; d: D form. Hyp = O=C(O)[C@@H]1C[C@@H](O)CN1
endpoint: Creatine Kinase (U/L)
Give bare numbers, in U/L.

compound CC(C)[C@@H]1NC(=O)[C@@H]2C[C@@H](O)CN2C(=O)[C@H]([C@@H](C)O)NC(=O)[C@H](CCCCN)NC(=O)[C@H](CCC(=O)O)NC(=O)[C@H](CC(N)=O)NC(=O)CNC(=O)[C@@H]2C[C@@H](O)CN2C(=O)[C@H](CC(N)=O)NC1=O [AFPep] (cyclo(EKT[Hyp]VN[Hyp]GN)) , Creatine Kinase observed: 169

* * *

protocol-summary: 8-day repeat-dose study, tolerability (blood chemistry, hematology, adverse events) in tumor-bearing dogs
Format: in vivo, dog
condition-label: Dog 3; Post: 30 min after last injection on day 8; 10 mg s.c. once daily for 8 days
Protocol: Previous studies utilizing repeat dosing in mice and rats established safe starting doses for studies using dogs. […] Blood levels of AFPep were measured before and 30 minutes following its administration on the first day and eighth day of treatment with AFPep. […] Tolerability was assessed using the Veterinary Cooperative Oncology Group Common Terminology Criteria for Adverse Events. […]
Where a SMILES comes first, the peptide text is derived from it. [ ]: non-standard residue; d: D form. Hyp = O=C(O)[C@@H]1C[C@@H](O)CN1
endpoint: Potassium

Sure, the documented Potassium for CC(C)[C@@H]1NC(=O)[C@@H]2C[C@@H](O)CN2C(=O)[C@H]([C@@H](C)O)NC(=O)[C@H](CCCCN)NC(=O)[C@H](CCC(=O)O)NC(=O)[C@H](CC(N)=O)NC(=O)CNC(=O)[C@@H]2C[C@@H](O)CN2C(=O)[C@H](CC(N)=O)NC1=O [AFPep] (cyclo(EKT[Hyp]VN[Hyp]GN)) is 5 mmol/L

* * *

protocol-summary: 8-day repeat-dose study, tolerability (blood chemistry, hematology, adverse events) in tumor-bearing dogs
Format: in vivo, dog
condition-label: Dog 6; Post: 30 min after last injection on day 8; 10 mg s.c. once daily for 8 days
Protocol: Previous studies utilizing repeat dosing in mice and rats established safe starting doses for studies using dogs. […] Blood levels of AFPep were measured before and 30 minutes following its administration on the first day and eighth day of treatment with AFPep. […] Tolerability was assessed using the Veterinary Cooperative Oncology Group Common Terminology Criteria for Adverse Events. […]
Where a SMILES comes first, the peptide text is derived from it. [ ]: non-standard residue; d: D form. Hyp = O=C(O)[C@@H]1C[C@@H](O)CN1
endpoint: MCH (pg)
Give bare numbers, in pg.

MCH for CC(C)[C@@H]1NC(=O)[C@@H]2C[C@@H](O)CN2C(=O)[C@H]([C@@H](C)O)NC(=O)[C@H](CCCCN)NC(=O)[C@H](CCC(=O)O)NC(=O)[C@H](CC(N)=O)NC(=O)CNC(=O)[C@@H]2C[C@@H](O)CN2C(=O)[C@H](CC(N)=O)NC1=O [AFPep] (cyclo(EKT[Hyp]VN[Hyp]GN)) is 25

* * *

protocol-summary: 8-day repeat-dose study, tolerability (blood chemistry, hematology, adverse events) in tumor-bearing dogs
Type: in vivo, dog
condition-label: Dog 2; Post: 30 min after last injection on day 8; 10 mg s.c. once daily for 8 days
Where a SMILES comes first, the peptide text is derived from it. [ ]: non-standard residue; d: D form. Hyp = O=C(O)[C@@H]1C[C@@H](O)CN1
endpoint: HCT (%)
Numbers only, in %.

# HCT of CC(C)[C@@H]1NC(=O)[C@@H]2C[C@@H](O)CN2C(=O)[C@H]([C@@H](C)O)NC(=O)[C@H](CCCCN)NC(=O)[C@H](CCC(=O)O)NC(=O)[C@H](CC(N)=O)NC(=O)CNC(=O)[C@@H]2C[C@@H](O)CN2C(=O)[C@H](CC(N)=O)NC1=O [AFPep] (cyclo(EKT[Hyp]VN[Hyp]GN)) = 46

* * *

protocol-summary: 8-day repeat-dose study, AFPep blood levels in tumor-bearing dogs
Assay type: in vivo, dog
condition-label: female, Yorkshire terrier, dog, blood, sc, 10 mg, Yorkshire terrier, 5.86 kg; 30 min after dose; 10 mg s.c. once daily for 8 days; single animal; read-out: AFPep blood level, Day 8 Post-Treatment
Where a SMILES comes first, the peptide text is derived from it. [ ]: non-standard residue; d: D form. Hyp = O=C(O)[C@@H]1C[C@@H](O)CN1
endpoint: level at 0.5 h (ng/mL)
Numbers only, in ng/mL.

Please fill in: level at 0.5 h reported for CC(C)[C@@H]1NC(=O)[C@@H]2C[C@@H](O)CN2C(=O)[C@H]([C@@H](C)O)NC(=O)[C@H](CCCCN)NC(=O)[C@H](CCC(=O)O)NC(=O)[C@H](CC(N)=O)NC(=O)CNC(=O)[C@@H]2C[C@@H](O)CN2C(=O)[C@H](CC(N)=O)NC1=O [AFPep] (cyclo(EKT[Hyp]VN[Hyp]GN)) = 1900

* * *

protocol-summary: 8-day repeat-dose study, tolerability (blood chemistry, hematology, adverse events) in tumor-bearing dogs
Type: in vivo, dog
condition-label: Dog 2; Post: 30 min after last injection on day 8; 10 mg s.c. once daily for 8 days
Where a SMILES comes first, the peptide text is derived from it. [ ]: non-standard residue; d: D form. Hyp = O=C(O)[C@@H]1C[C@@H](O)CN1
endpoint: MCH (pg)
Numbers only, in pg.

Measured MCH of CC(C)[C@@H]1NC(=O)[C@@H]2C[C@@H](O)CN2C(=O)[C@H]([C@@H](C)O)NC(=O)[C@H](CCCCN)NC(=O)[C@H](CCC(=O)O)NC(=O)[C@H](CC(N)=O)NC(=O)CNC(=O)[C@@H]2C[C@@H](O)CN2C(=O)[C@H](CC(N)=O)NC1=O [AFPep] (cyclo(EKT[Hyp]VN[Hyp]GN)) : 23

* * *

protocol-summary: in vivo
Set-up: species or system Macaca mulatta
condition-label: monkey, iv, 4 mg/kg
Where a SMILES comes first, the peptide text is derived from it. [ ]: non-standard residue; d: D form. Hyp = O=C(O)[C@@H]1C[C@@H](O)CN1
endpoint: half-life (min)
Answers are plain numbers, in min.

Sample CC(C)[C@@H]1NC(=O)[C@@H]2C[C@@H](O)CN2C(=O)[C@H]([C@@H](C)O)NC(=O)[C@H](CCCCN)NC(=O)[C@H](CCC(=O)O)NC(=O)[C@H](CC(N)=O)NC(=O)CNC(=O)[C@@H]2C[C@@H](O)CN2C(=O)[C@H](CC(N)=O)NC1=O [AFPep] (cyclo(EKT[Hyp]VN[Hyp]GN)) ; half-life observed: 107

* * *

protocol-summary: 8-day repeat-dose study, tolerability (blood chemistry, hematology, adverse events) in tumor-bearing dogs
Assay type: in vivo, dog
condition-label: Dog 2; Post: 30 min after last injection on day 8; 10 mg s.c. once daily for 8 days
Where a SMILES comes first, the peptide text is derived from it. [ ]: non-standard residue; d: D form. Hyp = O=C(O)[C@@H]1C[C@@H](O)CN1
endpoint: Albumin (g/dL)
Answers are plain numbers, in g/dL.

Measured Albumin of CC(C)[C@@H]1NC(=O)[C@@H]2C[C@@H](O)CN2C(=O)[C@H]([C@@H](C)O)NC(=O)[C@H](CCCCN)NC(=O)[C@H](CCC(=O)O)NC(=O)[C@H](CC(N)=O)NC(=O)CNC(=O)[C@@H]2C[C@@H](O)CN2C(=O)[C@H](CC(N)=O)NC1=O [AFPep] (cyclo(EKT[Hyp]VN[Hyp]GN)) : 4

* * *

protocol-summary: 8-day repeat-dose study, tolerability (blood chemistry, hematology, adverse events) in tumor-bearing dogs
Format: in vivo, dog
condition-label: Dog 2; Post: 30 min after last injection on day 8; 10 mg s.c. once daily for 8 days
Where a SMILES comes first, the peptide text is derived from it. [ ]: non-standard residue; d: D form. Hyp = O=C(O)[C@@H]1C[C@@H](O)CN1
endpoint: Calcium

Calcium recorded for this compound, CC(C)[C@@H]1NC(=O)[C@@H]2C[C@@H](O)CN2C(=O)[C@H]([C@@H](C)O)NC(=O)[C@H](CCCCN)NC(=O)[C@H](CCC(=O)O)NC(=O)[C@H](CC(N)=O)NC(=O)CNC(=O)[C@@H]2C[C@@H](O)CN2C(=O)[C@H](CC(N)=O)NC1=O [AFPep] (cyclo(EKT[Hyp]VN[Hyp]GN)) , is 11 mg/dL

* * *

protocol-summary: 8-day repeat-dose study, tolerability (blood chemistry, hematology, adverse events) in tumor-bearing dogs
Assay type: in vivo, dog
condition-label: Dog 3; Post: 30 min after last injection on day 8; 10 mg s.c. once daily for 8 days
Where a SMILES comes first, the peptide text is derived from it. [ ]: non-standard residue; d: D form. Hyp = O=C(O)[C@@H]1C[C@@H](O)CN1
endpoint: Sodium (mmol/L)
One number for each entry, in mmol/L.

Entry CC(C)[C@@H]1NC(=O)[C@@H]2C[C@@H](O)CN2C(=O)[C@H]([C@@H](C)O)NC(=O)[C@H](CCCCN)NC(=O)[C@H](CCC(=O)O)NC(=O)[C@H](CC(N)=O)NC(=O)CNC(=O)[C@@H]2C[C@@H](O)CN2C(=O)[C@H](CC(N)=O)NC1=O [AFPep] (cyclo(EKT[Hyp]VN[Hyp]GN)) , Sodium reported as 145

These measurements were taken from paper PMC9913752.
